measured target: Phencyclidine Receptor
condition notes: read-out: Apparent IC50
pIC50: −log10 of the molar value.
Short version: pIC50 at least 6 is 1.0, less is 0.0.

- CCNC1(c2cccc(N=C=S)c2)CCCCC1: 0.0

Textbook exercise: given the entry `c1ccc(C2(N3CCCCC3)CCCCC2)cc1` , state whether its pIC50 is greater than or equal to 6.
1.0

Request: `c1csc(C2(N3CCCCC3)CCCCC2)c1`
1.0

# iterate: `CC(C)NC1(c2cccc(N=C=S)c2)CCCCC1`
0.0

* * *

measured target: muscarinic receptors
metric name: IC50 (µM)
# unit: µM | format: bare number

I am curious: what IC50 value has been reported for `c1ccc(C2(N3CCCCC3)CCCCC2)cc1` ?
25
